System: Lefty1
TEST DETAILS: Lefty1 binders on small-molecule microarrays, primary screen, biochemical, small-molecule microarray, 635/667 nm fluorescence (AID 1139)
MEASUREMENT PARAMETERS: small-molecule microarray binding, fluorescence 635/667; higher = more signal
REPORTED PROPERTY: composite z-score
Please state the value as a number alone, without comment.

CCCC[C@@H]1C[C@H]1[C@@H](NC(=O)c1ccccc1)c1ccc(Cl)cc1; -2.22
C=CCN1C(=O)[C@@]2(O[C@@H](CCO)[C@H]([Si](C)(C)c3ccc(OC)cc3)[C@H]2C)c2cc(N3C(=O)c4ccccc4Oc4ccccc43)ccc21; 0.24
C=CC[C@]1(C(=O)N(C)C)N=C(c2ccc(OCCCO)cc2)O[C@H]1c1ccccc1N=[N+]=[N-]; -0.0297

Now turn to the next compound.
Return composite z-score measured with Lefty1 given this compound: COC(=O)Cn1c(C(=O)N2CCCC2)cc2c1C[C@H]1CN(C(=O)c3ccccc3)[C@@](Cc3ccc(F)cc3)(C(=O)OC)[C@@H]21
-0.3

---

System: wheat germ agglutinin (Triticum aestivum), Alexa647-labelled
TEST DETAILS: wheat germ agglutinin binders on compound microarrays, profiling panel, artefact control for SMM control-protein annotation, biochemical, small-molecule microarray, 635/667 nm fluorescence (AID 1140);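 also: score merges 667 nm feature emission with signal to noise over triplicate slides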
MEASUREMENT PARAMETERS: WGA-A647 binding, 635 nm fluorescence, higher = more signal
REPORTED PROPERTY: composite z-score
Please state the value as a number alone, without comment.

CN1C(=O)C2C=CC(C(O)Cc3ccccc3)N(N(c3ccccc3)c3ccccc3)C2C1=O (stereo not given); 0.201
C=CC[C@]1(C(=O)N(C)C)N=C(c2ccc(OCCCO)cc2)O[C@H]1c1ccccc1N=[N+]=[N-]; 1.25
CC(C)OC(=O)CC(=O)CC(O)c1cccc(C#N)c1 (stereo not given); 0.841
COC(=O)c1c(CC[C@@H](CO)NC(=O)N[C@H](Cn2cc(-c3ccccc3C)nn2)C(C)C)oc(C(C)=O)c1C(=O)OC; 0.567
CC(C)(C)N1CC=CC23O[C@@H]4C=CCOC(=O)[C@@H]4[C@H]2C(=O)N(CCCO)[C@@H]3C1=O (stereo not given in full); -1.13
COC(=O)[C@@]1(Cc2ccccc2)[C@H]2c3cc(C(=O)N4CCCC4)[nH]c3C[C@H]2CN1C(=O)c1ccccc1; -0.129
COc1ccc([Si](C)(C)[C@H]2[C@H](CCn3cc([C@H](O)c4ccccc4)nn3)O[C@@]3(C(=O)N(Cc4cccc(N5C(=O)c6cccc7cccc5c67)c4)c4ccccc43)[C@@H]2C)cc1; -0.76
CN(C)CCCCNC(=O)[C@H]1C[C@H]2C(=O)N[C@@H](CCCCN(C)C)C(=O)N2[C@H]1c1cccc(OCCO)c1; 1.02

Return composite z-score measured with wheat germ agglutinin (Triticum aestivum), Alexa647-labelled given this molecule: CCOC(=O)[C@@H]1[C@@H]2C(=O)N(CC)C(=O)[C@@H]2C[C@@H]1Sc1ccccc1
0.402

Return composite z-score measured with wheat germ agglutinin (Triticum aestivum), Alexa647-labelled given this molecule: COC(=O)[C@@]1(Cc2ccccc2)[C@H]2c3cc(C(=O)N4CCCC4)n(C[C@H](O)CO)c3C[C@H]2CN1C(=O)c1ccccc1
1.18

Return composite z-score measured with wheat germ agglutinin (Triticum aestivum), Alexa647-labelled given this molecule: O=C1c2ccccc2[C@](Cc2ccccc2I)(C(=O)NCCN2CCOCC2)[C@H](c2ccc(CO)cc2)N1Cc1ccccc1
0.458

Return composite z-score measured with wheat germ agglutinin (Triticum aestivum), Alexa647-labelled given this molecule: [N-]=[N+]=Nc1ccccc1C[C@@]1(C(=O)O)N=C(c2ccc(OCCCO)cc2)O[C@@H]1c1ccccc1
1.09

Return composite z-score measured with wheat germ agglutinin (Triticum aestivum), Alexa647-labelled given this molecule: CCCCC(=C=CC[C@@H](O)c1ccc(OCCO)cc1)C[C@@H](O)COCc1ccccc1
0.614

Return composite z-score measured with wheat germ agglutinin (Triticum aestivum), Alexa647-labelled given this molecule: COCCCNC(=O)[C@]1(Cc2ccccc2CN=[N+]=[N-])N=C(c2ccc(OCCCO)cc2)O[C@@H]1c1ccccc1
0.643

Return composite z-score measured with wheat germ agglutinin (Triticum aestivum), Alexa647-labelled given this molecule: C=CCN1C(=O)[C@@]2(O[C@@H](CCn3cc([C@H](O)c4ccccc4)nn3)[C@H]([Si](C)(C)c3ccc(OC)cc3)[C@H]2C)c2ccccc21
0.875

Return composite z-score measured with wheat germ agglutinin (Triticum aestivum), Alexa647-labelled given this molecule: O=C1O[C@@H](c2ccccc2)[C@@H](c2ccccc2)N2[C@@H](c3ccc(O)cc3)[C@]3(C(=O)Nc4ccc(C#CCCO)cc43)[C@@H](C(=O)Nc3nc4ccccc4s3)[C@H]12
0.552

Return composite z-score measured with wheat germ agglutinin (Triticum aestivum), Alexa647-labelled given this molecule: CN(C)CCCNC(=O)[C@@]1(C)c2ccccc2C(=O)N(Cc2cc(C(F)(F)F)cc(C(F)(F)F)c2)[C@H]1c1ccc(CO)cc1
-0.973

Return composite z-score measured with wheat germ agglutinin (Triticum aestivum), Alexa647-labelled given this molecule: C=CC1c2cc(O)c(OC)cc2CCN1Cc1sc2ccccc2c1Cl (stereo not given)
0.983

Return composite z-score measured with wheat germ agglutinin (Triticum aestivum), Alexa647-labelled given this molecule: COc1ccc(C(O)C2C=CC3C(=O)N(Cc4ccccc4)C(=O)C3N2n2cnnc2)c2ccccc12 (stereo not given)
0.0261

Return composite z-score measured with wheat germ agglutinin (Triticum aestivum), Alexa647-labelled given this molecule: C=CC[C@@]12N=C(c3ccc(OCCCO)cc3)O[C@@H]1c1ccccc1N(CCS(=O)(=O)c1ccccc1)C2=O
0.961

Return composite z-score measured with wheat germ agglutinin (Triticum aestivum), Alexa647-labelled given this molecule: CC=CC(O)C1C=CC2C(=O)N(c3ccccc3)C(=O)C2N1Nc1ccc([N+](=O)[O-])cc1 (stereo not given)
0.645

Return composite z-score measured with wheat germ agglutinin (Triticum aestivum), Alexa647-labelled given this molecule: COc1ccc([Si](C)(C)[C@H]2[C@H](CCn3cc(CCO)nn3)O[C@@]3(C(=O)N(Cc4ccc(N5C(=O)c6cccc7cccc5c67)cc4)c4ccccc43)[C@@H]2C)cc1
0.578

Return composite z-score measured with wheat germ agglutinin (Triticum aestivum), Alexa647-labelled given this molecule: CCOc1cc(C(O)C2C=CC3C(=O)N(C)C(=O)C3N2N2CCCCC2)ccc1O (stereo not given)
0.335

Return composite z-score measured with wheat germ agglutinin (Triticum aestivum), Alexa647-labelled given this molecule: O=C1O[C@@H](c2ccccc2)[C@@H](c2ccccc2)N2[C@@H](c3ccccc3OCCO)[C@]3(C(=O)Nc4ccc(C#CCCO)cc43)[C@@H](C(=O)Nc3nc4ccccc4s3)[C@H]12
1.23

Return composite z-score measured with wheat germ agglutinin (Triticum aestivum), Alexa647-labelled given this molecule: [N-]=[N+]=NCc1ccccc1C[C@@]1(C(=O)N2CCCCC2)N=C(c2ccc(OCCCO)cc2)O[C@@H]1c1ccccc1N=[N+]=[N-]
0.885

Return composite z-score measured with wheat germ agglutinin (Triticum aestivum), Alexa647-labelled given this molecule: CN(C)CCCNC(=O)[C@@H]1c2ccccc2C(=O)N(Cc2ccc(OC(F)(F)F)cc2)[C@H]1c1ccc(CO)cc1
-0.374

Return composite z-score measured with wheat germ agglutinin (Triticum aestivum), Alexa647-labelled given this molecule: CC1CC/C=C\[C@H]2OC34C=CCN(CCN5CCOCC5)C(=O)[C@H]3N(CCO)C(=O)[C@@H]4C2C(=O)O1 (stereo not given in full)
-0.176

Return composite z-score measured with wheat germ agglutinin (Triticum aestivum), Alexa647-labelled given this molecule: NC(=O)NCC#Cc1ccc2c(c1)[C@]1(C(=O)N2)[C@H](C(=O)O)[C@H]2C(=O)O[C@H](c3ccccc3)[C@H](c3ccccc3)N2[C@@H]1c1ccccc1OCCO
1.16

Return composite z-score measured with wheat germ agglutinin (Triticum aestivum), Alexa647-labelled given this molecule: C=C(C(=O)CC[C@H](OC(=O)c1cccnc1)c1ccc(CO)o1)C(C)C
0.884

Return composite z-score measured with wheat germ agglutinin (Triticum aestivum), Alexa647-labelled given this molecule: CN1C(=O)[C@@]2(CCS(=O)(=O)c3ccccc3)N=C(c3ccc(OCCCO)cc3)O[C@H]2c2ccccc21
1.01

---

TEST DETAILS: PSAC antagonists in infected red cells, primary screen, cell-based, P. falciparum Indochina, OD700, 2 h (AID 1155);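 also: lysis reports solute entry through the parasite surface anion channel PSAC; channel blockers reduce lysis of infected cells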
MEASUREMENT PARAMETERS: P. falciparum Indochina infected erythrocytes, osmotic lysis OD700; higher = more signal, called active from +8 up or from −8 down
Property: z-score; scope: individual compounds
Please state the value as a number alone, without comment.

C=CCNC(=O)[C@@H]1[C@H]2C(=O)O[C@H](c3ccccc3)[C@H](c3ccccc3)N2[C@H](c2ccccc2OCCO)[C@@]12C(=O)N(C(=O)OCCOC)c1ccc(C#CC3=CCCCC3)cc12; 0.741
CC=CC(O)C1C=CC2C(=O)N(c3ccccc3)C(=O)C2N1Nc1ccccc1 (stereo not drawn); 1.17
C[N+](C)(C)CCCC[C@@H]1NC(=O)[C@@H]2C[C@H](C(=O)O)[C@H](c3ccc(O)cc3)N2C1=O; 0.156
CC1CC/C=C\[C@H]2OC34C=CCN(c5ccc6ccccc6c5)C(=O)[C@H]3N(C(CO)C(C)C)C(=O)[C@@H]4C2C(=O)O1 (stereo partly drawn); 1.06
COCCOC(=O)N1C(=O)[C@@]2(c3cc(C#CC4=CCCCC4)ccc31)[C@H](c1ccc(O)cc1)N1[C@H](c3ccccc3)[C@H](c3ccccc3)OC(=O)[C@H]1[C@@H]2C(=O)Nc1nc2ccccc2s1; 1.76

Could you tell me which z-score is on file for CN(C)CCCCNC(=O)[C@H]1C[C@H]2C(=O)N[C@@H](CCCCN(C)C)C(=O)N2[C@H]1c1cccc(OCCO)c1 ?
-0.0174

Could you tell me which z-score is on file for O=C1O[C@@H](c2ccccc2)[C@@H](c2ccccc2)N2[C@@H](c3ccccc3OCCO)[C@]3(C(=O)Nc4ccccc43)[C@@H](C(=O)NC[C@H](O)c3ccccc3)[C@H]12 ?
2.2

Could you tell me which z-score is on file for CCN(CC)c1ccc(N2CC=CC34O[C@@H]5/C=C\CCC(C)OC(=O)C5[C@H]3C(=O)N(CCO)[C@@H]4C2=O)cc1 (stereo partly drawn) ?
0.615

Could you tell me which z-score is on file for COc1cc2c(cc1OC)CN(C(=O)[C@H]1[C@@H]3C(=O)O[C@@H](c4ccccc4)[C@@H](c4ccccc4)N3[C@@H](c3ccc(OCCO)cc3)[C@]13C(=O)Nc1ccc(C#CCCO)cc13)CC2 ?
1.8

Could you tell me which z-score is on file for CC(C)C(CO)N1C(=O)[C@]2(C)C3C(=O)OCCC/C=C\[C@H]3OC23C=CCN(c2ccc(Cl)cc2)C(=O)[C@@H]13 (stereo partly drawn) ?
0.31

Could you tell me which z-score is on file for [N-]=[N+]=NCc1ccccc1C[C@]1(C(=O)NCC(O)CO)N=C(c2ccc(OCCCO)cc2)O[C@H]1c1ccccc1CN=[N+]=[N-] (stereo partly drawn) ?
2.49
